Cited source for all entries: patent US20140288044A1

- target: IKKε (Homo sapiens, UniProt Q14164)
- Construct: His-tag (in-house Sf9 preparation) or GST-tag (purchased Invitrogen preparation); these are alternatives, not both on one protein; host or cells: Sf9 cells
- Sequence (Q14164 whole entry): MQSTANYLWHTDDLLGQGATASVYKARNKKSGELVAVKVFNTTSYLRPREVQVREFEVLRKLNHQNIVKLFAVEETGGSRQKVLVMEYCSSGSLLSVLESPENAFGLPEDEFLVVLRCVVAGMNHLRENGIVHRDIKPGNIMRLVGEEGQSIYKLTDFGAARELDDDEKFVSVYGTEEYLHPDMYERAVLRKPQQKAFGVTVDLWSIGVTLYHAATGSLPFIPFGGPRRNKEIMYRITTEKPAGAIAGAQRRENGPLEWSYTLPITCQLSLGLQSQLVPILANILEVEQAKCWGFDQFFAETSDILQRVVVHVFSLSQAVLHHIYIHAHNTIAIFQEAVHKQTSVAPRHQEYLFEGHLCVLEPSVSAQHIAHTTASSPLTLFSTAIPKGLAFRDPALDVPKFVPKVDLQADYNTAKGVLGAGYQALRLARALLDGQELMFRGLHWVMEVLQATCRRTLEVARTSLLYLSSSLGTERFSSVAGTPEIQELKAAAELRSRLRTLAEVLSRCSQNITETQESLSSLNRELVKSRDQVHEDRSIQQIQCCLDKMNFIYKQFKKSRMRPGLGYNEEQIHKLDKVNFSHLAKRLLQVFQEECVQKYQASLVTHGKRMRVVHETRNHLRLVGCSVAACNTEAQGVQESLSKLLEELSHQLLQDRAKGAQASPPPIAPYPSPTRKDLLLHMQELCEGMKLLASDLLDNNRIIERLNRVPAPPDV
- assay-details: In-vitro IKKε kinase assay (radiolabelled ATP, filterplate)
- Assay type: biochemical
- condition-details: "sensitized" assay; read-out: IC50, inhibition of the kinase activity of IKKε
Known IC50 of a selection of molecules

{"molecule": "N#Cc1cc(-c2ccnc(Nc3ccc(-n4ccnc4)nc3)n2)ccc1OC1CCOCC1 [Example Compound 200]", "IC50": "< 5 nM"}
{"molecule": "N#Cc1cc(-c2ccnc(Nc3ccc(C(=O)N4CCCC4)nc3)n2)ccc1OC1CCN(C(=O)CO)CC1 [Example Compound 232]", "IC50": "< 5 nM"}
{"molecule": "N#Cc1cc(-c2ccnc(Nc3cccnc3)n2)ccc1OC1CCOCC1 [Example Compound 11]", "IC50": "< 5 nM"}

----------
- System: RANTES secretion by prostate cancer DU145 cells
- assay-details: ELISA to detect secreted RANTES, prostate cancer DU145 cells
- Format: cell-based
- condition-details: Homo sapiens, DU-145; DU145 cells, 20 hours; read-out: IC50, inhibition of the secretion of RANTES
pIC50: −log10 of the molar value.

{"compound-structure-string": "CN(CCO)c1ccc(Nc2nccc(-c3ccc(OCC4CC4)c(C#N)c3)n2)cn1", "pIC50": "7.22 to 7.70"}
{"compound-structure-string": "N#Cc1cc(-c2ccnc(Nc3ccc(CN4CCC4)nc3)n2)ccc1OC1CCOCC1", "pIC50": "7.22 to 7.70"}
{"compound-structure-string": "N#Cc1cc(-c2ccnc(Nc3cccnc3)n2)ccc1OC1CCOCC1", "pIC50": "6.90 to 7.22"}
{"compound-structure-string": "N#Cc1cc(-c2ccnc(Nc3cnc(N4CCOCC4)nc3)n2)ccc1OC1CCOCC1", "pIC50": "6.90 to 7.22"}
{"compound-structure-string": "COC1CN(Cc2ccc(Nc3nccc(-c4ccc(OC5CCOCC5)c(C#N)c4)n3)cn2)C1", "pIC50": "7.22 to 7.70"}

----------
A collection of molecules and their measured pIC50
- Tested on: RANTES secretion by prostate cancer DU145 cells
- assay-details: ELISA to detect secreted RANTES, prostate cancer DU145 cells
- Format: cell-based
- condition-details: Homo sapiens, DU-145; Table 3, DU145 cells in culture; read-out: RANTES Secretion IC50
pIC50: −log10 of the molar value.

{"compound-structure-string": "N#Cc1cc(-c2ccnc(Nc3ccc(N4CCOCC4)nc3)n2)ccc1NC(=O)C1CC1", "pIC50": 7.68}
{"compound-structure-string": "COCCOC1CN(Cc2ccc(Nc3nccc(-c4ccc(OC5CCOCC5)c(C#N)c4)n3)cn2)C1", "pIC50": 7.25}
{"compound-structure-string": "N#Cc1cc(-c2ccnc(Nc3ccc(CN4CCC4)nc3)n2)ccc1OC1CCOCC1", "pIC50": 7.40}
{"compound-structure-string": "COC1CN(Cc2ccc(Nc3nccc(-c4ccc(OC5CCOCC5)c(C#N)c4)n3)cn2)C1", "pIC50": 7.28}

----------
Quick reference for pIC50 among some compounds
- target: IKKε (Homo sapiens)
- Construct: His-tag (in-house Sf9 preparation) or GST-tag (purchased Invitrogen preparation); these are alternatives, not both on one protein; host or cells: Sf9 cells
- assay-details: In-vitro IKKε kinase assay (radiolabelled ATP, filterplate)
- Assay type: biochemical
- condition-details: in-vitro IKKε kinase inhibition assays; given as 0.005 μM (5 nM); read-out: IKKε kinase inhibitory activity (IC50 value)
pIC50: −log10 of the molar value.
readout-name: pIC50

{"compound": "CCOc1ccc(Nc2nccc(-c3ccc(OC4CCOCC4)c(C#N)c3)n2)cn1", "readout-name": "pIC50", "experimental-value": "> 8.30"}
{"compound": "COC1CN(Cc2cncc(Nc3nccc(-c4ccc(OC5CCOCC5)c(C#N)c4)n3)c2)C1", "readout-name": "pIC50", "experimental-value": "> 8.30"}
{"compound": "C[C@@H](O)C(=O)N(C)Cc1ccc(Nc2nccc(-c3ccc(OC4CCOCC4)c(C#N)c3)n2)cn1", "readout-name": "pIC50", "experimental-value": "> 8.30"}
{"compound": "CC(=O)N(C)Cc1ccc(Nc2nccc(-c3ccc(OC4CCOCC4)c(C#N)c3)n2)cn1", "readout-name": "pIC50", "experimental-value": "> 8.30"}
{"compound": "CN(CCO)c1ccc(Nc2nccc(-c3ccc(OCC4CC4)c(C#N)c3)n2)cn1", "readout-name": "pIC50", "experimental-value": "> 8.30"}
{"compound": "COCCNc1cc(Nc2nccc(-c3ccc(OC4CCOCC4)c(C#N)c3)n2)ccn1", "readout-name": "pIC50", "experimental-value": "> 8.30"}
{"compound": "N#Cc1cc(-c2ccnc(Nc3ccnc(CN4CC(O)C4)c3)n2)ccc1OC1CCOCC1", "readout-name": "pIC50", "experimental-value": "> 8.30"}
{"compound": "Cn1cc(-c2ccc(Nc3nccc(-c4ccc(OC5CCOCC5)c(C#N)c4)n3)cn2)cn1", "readout-name": "pIC50", "experimental-value": "> 8.30"}
{"compound": "COCCNCc1cncc(Nc2nccc(-c3ccc(OC4CCOCC4)c(C#N)c3)n2)c1", "readout-name": "pIC50", "experimental-value": "> 8.30"}
{"compound": "Cc1cc(Nc2nccc(-c3ccc(O[C@@H]4CCN(C(=O)CO)C4)c(C#N)c3)n2)ccn1", "readout-name": "pIC50", "experimental-value": "> 8.30"}
{"compound": "CN(Cc1ccc(Nc2nccc(-c3ccc(OC4CCOCC4)c(C#N)c3)n2)cn1)C(=O)C1(N)CC1", "readout-name": "pIC50", "experimental-value": "> 8.30"}
{"compound": "COC1CCN(c2cc(Nc3nccc(-c4ccc(OC5CCOCC5)c(C#N)c4)n3)ccn2)C1 (stereo not shown)", "readout-name": "pIC50", "experimental-value": "> 8.30"}
{"compound": "CN(C)c1ccc(Nc2nccc(-c3ccc(OC4CCOCC4)c(C#N)c3)n2)cn1", "readout-name": "pIC50", "experimental-value": "> 8.30"}
{"compound": "N#Cc1cc(-c2ccnc(Nc3ccnc(N4CCC[C@@H]4CO)c3)n2)ccc1OC1CCOCC1", "readout-name": "pIC50", "experimental-value": "> 8.30"}
{"compound": "N#Cc1cc(-c2ccnc(Nc3ccc(C(=O)N4CCN(CCO)CC4)s3)n2)ccc1OC1CCOCC1", "readout-name": "pIC50", "experimental-value": "> 8.30"}
{"compound": "CC(c1ccc(Nc2nccc(-c3ccc(OC4CCOCC4)c(C#N)c3)n2)cn1)N1CC(O)C1 (stereo not shown)", "readout-name": "pIC50", "experimental-value": "> 8.30"}
